Source listed as paper PMC8413904.

target: GluN1/2A (UniProt P35439+Q12879); test: TEVC electrophysiology dose–response in xenopus oocytes; assay type: cell-based
Sequence (Q12879 23-1464, other chains not shown): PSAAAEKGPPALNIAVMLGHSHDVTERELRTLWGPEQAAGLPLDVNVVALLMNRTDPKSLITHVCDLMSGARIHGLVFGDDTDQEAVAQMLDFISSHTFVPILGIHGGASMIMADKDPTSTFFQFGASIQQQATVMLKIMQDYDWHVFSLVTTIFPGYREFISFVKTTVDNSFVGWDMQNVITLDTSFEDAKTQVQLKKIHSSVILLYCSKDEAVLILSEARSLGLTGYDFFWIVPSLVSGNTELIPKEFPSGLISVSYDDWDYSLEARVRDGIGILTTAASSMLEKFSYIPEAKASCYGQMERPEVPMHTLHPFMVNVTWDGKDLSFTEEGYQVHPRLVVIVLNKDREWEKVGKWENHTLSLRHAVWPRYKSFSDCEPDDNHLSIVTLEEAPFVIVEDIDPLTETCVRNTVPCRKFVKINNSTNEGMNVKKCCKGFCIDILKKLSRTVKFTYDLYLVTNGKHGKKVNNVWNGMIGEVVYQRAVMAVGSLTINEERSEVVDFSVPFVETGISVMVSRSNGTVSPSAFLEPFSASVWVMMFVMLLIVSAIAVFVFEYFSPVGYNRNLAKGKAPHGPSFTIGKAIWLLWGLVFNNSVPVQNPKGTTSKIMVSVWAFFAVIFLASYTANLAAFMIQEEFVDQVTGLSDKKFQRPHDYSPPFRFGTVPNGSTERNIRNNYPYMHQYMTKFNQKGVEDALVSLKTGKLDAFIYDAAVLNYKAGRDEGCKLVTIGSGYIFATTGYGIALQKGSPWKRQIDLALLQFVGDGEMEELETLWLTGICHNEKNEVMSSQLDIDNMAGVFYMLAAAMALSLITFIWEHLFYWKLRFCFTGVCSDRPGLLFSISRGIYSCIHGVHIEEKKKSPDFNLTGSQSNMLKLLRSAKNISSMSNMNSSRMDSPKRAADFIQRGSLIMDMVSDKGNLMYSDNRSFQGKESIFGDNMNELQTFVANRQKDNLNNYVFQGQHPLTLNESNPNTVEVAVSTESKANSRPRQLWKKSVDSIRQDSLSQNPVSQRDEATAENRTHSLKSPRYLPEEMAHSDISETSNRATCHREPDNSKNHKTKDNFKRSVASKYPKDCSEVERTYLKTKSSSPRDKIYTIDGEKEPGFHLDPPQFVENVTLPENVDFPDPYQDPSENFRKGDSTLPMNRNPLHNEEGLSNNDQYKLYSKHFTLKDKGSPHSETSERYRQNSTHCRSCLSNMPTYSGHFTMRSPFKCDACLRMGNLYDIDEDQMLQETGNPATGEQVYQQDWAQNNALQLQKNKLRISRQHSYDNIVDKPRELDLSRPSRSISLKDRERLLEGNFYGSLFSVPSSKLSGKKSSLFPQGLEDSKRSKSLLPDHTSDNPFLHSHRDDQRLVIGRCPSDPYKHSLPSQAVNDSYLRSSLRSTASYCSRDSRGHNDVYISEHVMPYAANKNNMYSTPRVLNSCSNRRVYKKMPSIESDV
readoutName: pIC50
Give bare numbers, as −log10 of the molar value.

What the record says about CC(C(O)c1ccc(O)cc1)N1CCC(Cc2ccccc2)CC1 (stereo not shown) [ifenprodil, reference compound] : pIC50 is 3.69

###

biological target: GluN1/2D (UniProt O15399+P35439); test: TEVC electrophysiology dose–response in xenopus oocytes
Sequence (O15399 28-1336, other chains not shown): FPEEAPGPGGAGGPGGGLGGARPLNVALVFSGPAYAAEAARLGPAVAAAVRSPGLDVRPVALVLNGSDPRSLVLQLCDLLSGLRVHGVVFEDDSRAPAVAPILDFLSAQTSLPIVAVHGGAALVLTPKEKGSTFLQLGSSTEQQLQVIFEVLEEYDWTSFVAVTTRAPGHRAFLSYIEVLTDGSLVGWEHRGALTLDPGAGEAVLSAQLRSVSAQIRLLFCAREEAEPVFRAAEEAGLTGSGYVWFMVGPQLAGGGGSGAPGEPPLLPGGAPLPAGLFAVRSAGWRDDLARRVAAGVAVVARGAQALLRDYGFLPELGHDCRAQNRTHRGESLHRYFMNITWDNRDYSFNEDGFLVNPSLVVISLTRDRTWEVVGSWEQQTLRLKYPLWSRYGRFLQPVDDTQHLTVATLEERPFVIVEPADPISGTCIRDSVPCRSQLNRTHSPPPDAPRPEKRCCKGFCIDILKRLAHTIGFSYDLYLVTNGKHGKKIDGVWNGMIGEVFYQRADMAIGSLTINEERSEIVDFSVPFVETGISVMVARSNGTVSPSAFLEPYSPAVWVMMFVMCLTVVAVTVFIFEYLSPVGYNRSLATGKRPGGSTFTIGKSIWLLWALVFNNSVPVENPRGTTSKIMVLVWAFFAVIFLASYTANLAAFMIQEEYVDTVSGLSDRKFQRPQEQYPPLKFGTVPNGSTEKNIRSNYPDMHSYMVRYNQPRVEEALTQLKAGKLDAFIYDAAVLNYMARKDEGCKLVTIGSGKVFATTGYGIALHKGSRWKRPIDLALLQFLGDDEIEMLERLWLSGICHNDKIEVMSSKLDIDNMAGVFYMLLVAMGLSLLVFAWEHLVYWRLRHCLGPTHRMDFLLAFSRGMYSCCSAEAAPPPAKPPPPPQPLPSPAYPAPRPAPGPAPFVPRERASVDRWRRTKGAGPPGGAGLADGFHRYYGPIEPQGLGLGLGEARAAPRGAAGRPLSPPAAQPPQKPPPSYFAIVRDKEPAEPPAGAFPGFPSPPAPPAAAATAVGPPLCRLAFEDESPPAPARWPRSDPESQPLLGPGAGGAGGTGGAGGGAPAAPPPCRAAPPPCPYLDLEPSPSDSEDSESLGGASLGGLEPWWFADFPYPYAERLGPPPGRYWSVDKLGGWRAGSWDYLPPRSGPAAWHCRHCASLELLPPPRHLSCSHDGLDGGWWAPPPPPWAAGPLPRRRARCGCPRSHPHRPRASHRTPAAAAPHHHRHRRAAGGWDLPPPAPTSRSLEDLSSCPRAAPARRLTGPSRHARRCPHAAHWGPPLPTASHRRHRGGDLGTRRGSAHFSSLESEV
readoutName: EC50 (nM)
Give bare numbers, in nM.

What the record says about N[C@@H](CCC(=O)O)C(=O)O [glutamate, L‐glutamic acid, reference compound] : EC50 is 340
